Provenance of the data: paper PMC10754745

Each entry below carries its reported IC50.
system: P. falciparum 3D7; assay: Growth inhibition of P. falciparum 3D7 cultures, SYBR Green assay; type: cell-based, Plasmodium falciparum; details: Plasmodium falciparum, 3D7, 72 h, P. falciparum 3D7, 72 h, triplicate

Molecule: CC(=O)N1N=C(c2cccc(Nc3ccncc3)c2)CC1c1ccc2c(c1)OCO2 (centres unmarked) [UV290]
Measurement: 1.58 to 2.75 µM

Molecule: Cc1ccc(C2CC(c3cccc(Nc4ccncc4)c3)=Nc3c(N)nc(N)nc3N2)cc1 (centres unmarked) [UV801, Pyridyl-amino- pyrimido- diazepine]
Measurement: < 1 µM

Molecule: COc1cc(C2CC(c3cccc(Nc4ccncc4)c3)=NN2c2ccccc2)cc(OC)c1OC (centres unmarked) [UV297]
Measurement: < 1 µM

Molecule: COc1ccc(C2CC(c3cccc(Nc4ccncc4)c3)=NN2C(C)=O)cc1 (centres unmarked) [UV287]
Measurement: 1.58 to 2.75 µM

Attention now shifts to the item below.
Which IC50 is reported for this molecule? CC(=O)N1N=C(c2cccc(Nc3ccncc3)c2)CC1c1ccc(F)cc1 (centres unmarked) [UV288] 1.58 to 2.75 µM

====

Each entry below carries its reported LD50 at 5 days.
assay: In vivo toxicity in Galleria mellonella larvae; conditions: Galleria mellonella, in vivo, other: injection; larvae, injection, survival monitored 5 days; read-out: G. mellonella LD50
Numbers only; they are read as mg/kg.

Below, 8 compounds whose answers are already recorded.
Compound: O=C(/C=C/c1cccc(Nc2ccnc3cc(Cl)ccc23)c1)c1ccc2c(c1)OCO2
Measurement Unit: mg/kg
LD50 at 5 days: 2000
--
Compound: Nc1nc(N)c2c(n1)NC(c1ccc(Cl)cc1)CC(c1cccc(Nc3ccncc3)c1)=N2 (stereo not shown) [UV797, Pyridyl-amino-pyrimido-diazepine]
Measurement Unit: mg/kg
LD50 at 5 days: 2000
--
Compound: Nc1ncnc2c1N=C(c1cccc(Nc3ccncc3)c1)CC(c1ccccc1)N2 (stereo not shown) [UV712, Pyridyl-amino-pyrimido-diazepine]
Measurement Unit: mg/kg
LD50 at 5 days: 1000
--
Compound: COc1cc(C2CC(c3cccc(Nc4ccncc4)c3)=NN2c2ccccc2)cc(OC)c1OC (stereo not shown)
Measurement Unit: mg/kg
LD50 at 5 days: 2000
--
Compound: CC(=O)N1N=C(c2cccc(Nc3ccncc3)c2)CC1c1ccccc1 (stereo not shown)
Measurement Unit: mg/kg
LD50 at 5 days: 3000
--
Compound: Cc1ccc(C2CC(c3cccc(Nc4ccncc4)c3)=Nc3c(N)nc(N)nc3N2)cc1 (stereo not shown) [UV801, Pyridyl-amino- pyrimido- diazepine]
Measurement Unit: mg/kg
LD50 at 5 days: 2000
--
Compound: COc1ccc(C2CC(c3cccc(Nc4ccncc4)c3)=NN2c2ccccc2)cc1 (stereo not shown)
Measurement Unit: mg/kg
LD50 at 5 days: 2000
--
Compound: Nc1nc(N)c2c(n1)NC(c1ccccc1)CC(c1cccc(Nc3ccncc3)c1)=N2 (stereo not shown) [UV802, Pyridyl-amino-pyrimido-diazepina]
Measurement Unit: mg/kg
LD50 at 5 days: 2000

Which LD50 at 5 days is reported for this compound? CC(=O)N1N=C(c2cccc(Nc3ccncc3)c2)CC1c1ccc(Br)cc1 (stereo not shown) 1500

Which LD50 at 5 days is reported for this compound? Clc1ccc(N2N=C(c3cccc(Nc4ccncc4)c3)CC2c2ccc3c(c2)OCO3)cc1 (stereo not shown) 2000

====

system: Galleria mellonella; experiment: In vivo toxicity in Galleria mellonella larvae; parameters: scale not given here; details: class from LD50 in larvae
Property Name: G. mellonella Toxicity class
Just the number.

Compound: CC(=O)N1N=C(c2cccc(Nc3ccncc3)c2)CC1c1ccc(Br)cc1 (stereo not drawn)
G. mellonella Toxicity class: 4

Which G. mellonella Toxicity class is reported for this compound? Clc1ccc(N2N=C(c3cccc(Nc4ccncc4)c3)CC2c2ccc3c(c2)OCO3)cc1 (stereo not drawn) 5

Which G. mellonella Toxicity class is reported for this compound? Nc1nc(N)c2c(n1)NC(c1ccccc1)CC(c1cccc(Nc3ccncc3)c1)=N2 (stereo not drawn) [UV802, Pyridyl-amino-pyrimido-diazepina] 5

====

test system: P. falciparum 3D7; test: Growth inhibition of P. falciparum 3D7 cultures, SYBR Green assay; assay type: cell-based, Plasmodium falciparum; conditions: P. falciparum 3D7, 72 h, triplicate, listed as 286
Property Name: pIC50
Just the number, please; pIC50 means minus log10 of the concentration in mol/L.

Which pIC50 is reported for this compound? CC(=O)N1N=C(c2cccc(Nc3ccncc3)c2)CC1c1ccc(Br)cc1 (stereo not shown) [UV286] 6.35

====

system: P. falciparum 3D7; assay: Growth inhibition of P. falciparum 3D7 cultures, SYBR Green assay; assay type: cell-based, Plasmodium falciparum; conditions: Plasmodium falciparum, 3D7, 72 h, P. falciparum 3D7, 72 h, triplicate
pIC50: −log10 of the molar value.
Property Name: pIC50

Below, 3 compounds whose answers are already recorded.
Compound: Nc1ncnc2c1N=C(c1cccc(Nc3ccncc3)c1)CC(c1ccccc1)N2 (stereo not shown) [UV712, Pyridyl-amino-pyrimido-diazepine]
pIC50: < 6.00

Compound: Clc1ccc(N2N=C(c3cccc(Nc4ccncc4)c3)CC2c2ccc3c(c2)OCO3)cc1 (stereo not shown)
pIC50: > 6.00

Compound: CC(=O)N1N=C(c2cccc(Nc3ccncc3)c2)CC1c1ccc(C)cc1 (stereo not shown)
pIC50: 5.56 to 5.80

Attention now shifts to the item below.
Which pIC50 is reported for this compound? CC(=O)N1N=C(c2cccc(Nc3ccncc3)c2)CC1c1ccc(Cl)cc1 (stereo not shown) 5.56 to 5.80

====

System: human RBCs
Test: Hemolytic activity test
Format: cell-based
Conditions: human RBCs 2% hematocrit, 72 h, 37 °C; tested at 200, 100, 50, 25 μM
Method: The ability to induce membrane damage was assessed by testing the hemolytic activity of those compounds showing inhibition of parasite growth. The assay was adapted from Sousa et al. ([2021]) with modifications. […] Free hemoglobin was measured after 72 h of incubation at 37 °C by spectrophotometry at 540 nm (Cytation 3 M, Biotek). Nonspecific absorbance was corrected by subtracting the blank (PBS). […]
Property Name: Hemolytic activity

Below, 5 compounds whose answers are already recorded.
Compound: O=C(/C=C/c1cccc(Nc2ccnc3cc(Cl)ccc23)c1)c1ccc2c(c1)OCO2
Target Or Test System: human RBCs
Hemolytic activity: > 200 µM
//
Compound: CC(=O)N1N=C(c2cccc(Nc3ccncc3)c2)CC1c1ccc(Br)cc1 (stereo not shown)
Target Or Test System: human RBCs
Hemolytic activity: >200 µM
//
Compound: COc1cc(C2CC(c3cccc(Nc4ccncc4)c3)=NN2c2ccccc2)cc(OC)c1OC (stereo not shown)
Target Or Test System: human RBCs
Hemolytic activity: >200 µM
//
Compound: Nc1ncnc2c1N=C(c1cccc(Nc3ccncc3)c1)CC(c1ccccc1)N2 (stereo not shown) [UV712, Pyridyl-amino-pyrimido-diazepine]
Target Or Test System: human RBCs
Hemolytic activity: >200 µM
//
Compound: Nc1nc(N)c2c(n1)NC(c1ccc(Cl)cc1)CC(c1cccc(Nc3ccncc3)c1)=N2 (stereo not shown) [UV797, Pyridyl-amino-pyrimido-diazepine]
Target Or Test System: human RBCs
Hemolytic activity: > 200 µM

Which Hemolytic activity is reported for this compound? Clc1ccc(N2N=C(c3cccc(Nc4ccncc4)c3)CC2c2ccc3c(c2)OCO3)cc1 (stereo not shown) 25 µM

Which Hemolytic activity is reported for this compound? Cc1ccc(C2CC(c3cccc(Nc4ccncc4)c3)=Nc3c(N)nc(N)nc3N2)cc1 (stereo not shown) [UV801, Pyridyl-amino- pyrimido- diazepine] >200 µM

Which Hemolytic activity is reported for this compound? Nc1nc(N)c2c(n1)NC(c1ccccc1)CC(c1cccc(Nc3ccncc3)c1)=N2 (stereo not shown) [UV802, Pyridyl-amino-pyrimido-diazepina] > 200 µM

Which Hemolytic activity is reported for this compound? CC(=O)N1N=C(c2cccc(Nc3ccncc3)c2)CC1c1ccccc1 (stereo not shown) >100 µM

====

system: P. falciparum 3D7; assay: Growth inhibition of P. falciparum 3D7 cultures, SYBR Green assay; format: cell-based, Plasmodium falciparum; conditions: Plasmodium falciparum, 3D7, 72 h, P. falciparum 3D7, 72 h, triplicate
Property Name: IC50

Below, 2 compounds whose answers are already recorded.
Compound: CC(=O)N1N=C(c2cccc(Nc3ccncc3)c2)CC1c1ccccc1 (stereo not drawn)
IC50: < 1 µM
//
Compound: COc1ccc(C2CC(c3cccc(Nc4ccncc4)c3)=NN2c2ccccc2)cc1 (stereo not drawn)
IC50: < 1 µM

Attention now shifts to the item below.
Look up IC50 with P. falciparum 3D7 for this compound: O=C(/C=C/c1cccc(Nc2ccnc3cc(Cl)ccc23)c1)c1ccc2c(c1)OCO2 > 1 µM
